These measurements were taken from PubChem BioAssay.

Give composite z-score for every item shown.
Target: Dihydroorotate dehydrogenase (quinone), mitochondrial (Plasmodium falciparum (isolate 3D7))
Assay: inhibition of P. falciparum DHODH – biochemical, C-terminal His tag, absorbance 600 nm, primary screen (AID 1175);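 also: recombinant parasite enzyme with a five histidine tag at its C terminus; test concentration not given here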
Conditions: PfDHODH enzyme, DCIP absorbance 600 nm; higher = more signal, called active from +8 up or from −8 down
Give a plain numeric answer without units written out.

In: Which composite z-score value is on record for CN1C(=O)C2C=CC(C(O)c3ccc(F)cc3)N(N3CCCCC3)C2C1=O (stereo not drawn) ?
Out: -0.555

In: Given the entry CCCC[C@H]1OB(O)C[C@H]2C1=C(COc1ccccc1)Cn1c(=O)n(-c3ccccc3)c(=O)n12 , report its measured composite z-score.
Out: -2.51

In: Looking for the measured composite z-score of C[C@H]1NC(=O)C([C@@H](C)OCc2ccccc2)NC(=O)[C@@]23C(=O)N[C@@H](Cc4ccccc4)C2[C@H](C)[C@@]2(C)O[C@H]2C3/C=C/CC/C=C/CNC1=O (stereo partly drawn) , can you help?
Out: 0.855
